MEASURED TARGET: Androgen receptor (Homo sapiens, UniProt P10275)
Sequence (P10275 whole entry): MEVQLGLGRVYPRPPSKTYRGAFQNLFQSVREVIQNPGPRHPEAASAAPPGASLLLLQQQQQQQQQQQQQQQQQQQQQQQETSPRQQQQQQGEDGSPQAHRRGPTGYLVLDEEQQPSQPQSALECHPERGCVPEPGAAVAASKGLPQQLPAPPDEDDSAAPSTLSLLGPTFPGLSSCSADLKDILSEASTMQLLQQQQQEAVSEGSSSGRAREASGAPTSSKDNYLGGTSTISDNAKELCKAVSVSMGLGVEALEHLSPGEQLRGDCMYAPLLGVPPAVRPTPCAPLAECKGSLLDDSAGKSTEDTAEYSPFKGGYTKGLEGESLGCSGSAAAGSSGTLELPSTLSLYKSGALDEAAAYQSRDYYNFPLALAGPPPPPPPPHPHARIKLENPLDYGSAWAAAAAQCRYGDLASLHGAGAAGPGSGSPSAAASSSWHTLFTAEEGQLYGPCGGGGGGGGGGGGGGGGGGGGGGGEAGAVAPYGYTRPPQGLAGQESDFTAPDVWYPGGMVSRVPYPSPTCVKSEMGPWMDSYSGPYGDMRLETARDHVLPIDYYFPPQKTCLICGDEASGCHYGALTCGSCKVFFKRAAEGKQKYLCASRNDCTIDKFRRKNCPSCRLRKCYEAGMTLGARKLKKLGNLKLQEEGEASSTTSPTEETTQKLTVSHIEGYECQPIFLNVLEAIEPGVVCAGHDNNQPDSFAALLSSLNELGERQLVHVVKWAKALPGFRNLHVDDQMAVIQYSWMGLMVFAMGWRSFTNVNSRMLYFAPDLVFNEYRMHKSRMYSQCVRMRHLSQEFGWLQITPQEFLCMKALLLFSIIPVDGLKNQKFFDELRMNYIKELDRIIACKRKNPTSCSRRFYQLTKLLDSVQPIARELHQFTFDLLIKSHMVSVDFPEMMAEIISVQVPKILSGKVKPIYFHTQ
ASSAY COMMENT: Inhibition of androgen receptor in human LNCaP cells assessed as inhibition of prostate-specific antigen secretion into media after 3 days
Assay type: cell-based

SMILES: c1ccc(-c2ccc(N3CCOCC3)s2)cc1
DISPLAY UNIT: nM
IC50: 510

SMILES: Fc1ccc(-c2csc(N3CCOCC3)n2)cc1
DISPLAY UNIT: nM
IC50: 410

SMILES: Oc1cc(F)ccc1-c1csc(N2CCOCC2)n1
DISPLAY UNIT: nM
IC50: 810

SMILES: c1ccc2nc(-c3ccncc3)ccc2c1
DISPLAY UNIT: nM
IC50: 2260

SMILES: Ic1ncn(-c2csc(N3CCOCC3)n2)c1I
DISPLAY UNIT: nM
IC50: 1810

SMILES: Clc1cn(-c2csc(N3CCOCC3)n2)cn1
DISPLAY UNIT: nM
IC50: 720
